Reported values of inhibition at 1 µM for individual entries
Target Or System: UniProt P41743
Sequence (P41743 1-596): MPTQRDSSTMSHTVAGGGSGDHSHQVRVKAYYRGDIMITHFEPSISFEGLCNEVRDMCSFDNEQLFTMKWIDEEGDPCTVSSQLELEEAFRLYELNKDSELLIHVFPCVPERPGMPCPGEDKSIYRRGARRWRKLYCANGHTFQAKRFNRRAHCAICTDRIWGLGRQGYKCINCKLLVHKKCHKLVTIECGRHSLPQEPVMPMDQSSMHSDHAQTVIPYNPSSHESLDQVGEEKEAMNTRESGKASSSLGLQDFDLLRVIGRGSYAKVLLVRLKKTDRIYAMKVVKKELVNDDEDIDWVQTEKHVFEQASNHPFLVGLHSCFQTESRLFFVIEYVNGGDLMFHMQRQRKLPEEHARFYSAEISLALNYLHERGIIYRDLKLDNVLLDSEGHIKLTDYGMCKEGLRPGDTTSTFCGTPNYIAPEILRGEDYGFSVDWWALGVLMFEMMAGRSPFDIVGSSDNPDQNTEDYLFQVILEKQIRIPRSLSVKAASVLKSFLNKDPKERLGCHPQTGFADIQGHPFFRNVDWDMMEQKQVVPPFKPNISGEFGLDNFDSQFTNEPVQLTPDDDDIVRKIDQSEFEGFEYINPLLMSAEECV
Assay Info: Kinase panel profiling at 1 µmol/L (MSA or IMAP), percentage inhibition
Type: biochemical
Experimental Parameters: kinase PKCι; 1 µmol/L single concentration; read-out: %-inhibition at 1 µmol/L, PKCι

>  <Structure As Smiles>
Cn1cnc2c(F)c(Nc3ccc(Br)cc3Cl)c(C(=O)NOCCO)cc21

>  <Target Or System>
UniProt P41743

>  <inhibition at 1 µM>
-6.5%

$$$$
>  <Structure As Smiles>
Cn1cc(-c2cc3c(N4CCN(c5ncc([C@@](C)(N)c6ccc(F)cc6)cn5)CC4)ncnn3c2)cn1

>  <Target Or System>
UniProt P41743

>  <inhibition at 1 µM>
0.376%

$$$$
>  <Structure As Smiles>
CCN1C(=O)N(c2c(F)c(OC)cc(OC)c2F)Cc2cnc3[nH]c(CN4CCOCC4)cc3c21

>  <Target Or System>
UniProt P41743

>  <inhibition at 1 µM>
-4%

$$$$
>  <Structure As Smiles>
O=C(Nc1cnn2ccc(N3CCC[C@@H]3c3cc(F)ccc3F)nc12)N1CC[C@H](O)C1

>  <Target Or System>
UniProt P41743

>  <inhibition at 1 µM>
-6%

$$$$

###

Target Or System: panel of 255 wild-type kinases (Homo sapiens, UniProt O15146)
Sequence (O15146 24-869): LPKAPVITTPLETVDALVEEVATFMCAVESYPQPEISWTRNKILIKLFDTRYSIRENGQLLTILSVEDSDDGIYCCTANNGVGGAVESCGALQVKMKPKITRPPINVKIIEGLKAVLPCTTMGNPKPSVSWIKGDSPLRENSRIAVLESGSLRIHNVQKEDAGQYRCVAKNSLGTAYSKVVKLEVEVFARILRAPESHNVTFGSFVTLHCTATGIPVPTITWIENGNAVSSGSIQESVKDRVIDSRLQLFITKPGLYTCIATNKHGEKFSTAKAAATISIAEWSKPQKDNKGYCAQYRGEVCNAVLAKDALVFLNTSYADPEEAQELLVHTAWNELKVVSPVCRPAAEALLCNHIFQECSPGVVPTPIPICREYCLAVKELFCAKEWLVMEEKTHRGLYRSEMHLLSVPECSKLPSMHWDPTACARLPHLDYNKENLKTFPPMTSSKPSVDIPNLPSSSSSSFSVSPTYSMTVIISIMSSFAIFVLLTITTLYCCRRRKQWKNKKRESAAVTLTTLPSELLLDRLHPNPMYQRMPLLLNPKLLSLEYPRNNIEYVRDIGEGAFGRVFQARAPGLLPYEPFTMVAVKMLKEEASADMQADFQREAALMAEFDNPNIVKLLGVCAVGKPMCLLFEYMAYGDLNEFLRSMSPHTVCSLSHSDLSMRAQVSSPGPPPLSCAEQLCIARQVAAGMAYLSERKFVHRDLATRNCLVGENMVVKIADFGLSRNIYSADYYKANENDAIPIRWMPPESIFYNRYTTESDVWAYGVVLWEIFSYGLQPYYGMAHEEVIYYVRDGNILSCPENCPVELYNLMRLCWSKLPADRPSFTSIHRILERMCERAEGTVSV
Assay Info: Kinase panel profiling at 1 µmol/L (MSA or IMAP), percentage inhibition
Assay type: biochemical
Experimental Parameters: MUSK; 1 µmol/L single concentration; read-out: %-inhibition, MUSK
Reported values of inhibition at 1 µM for individual entries
Endpoint: inhibition at 1 µM (%)

>  <Compound>
FC(F)(F)c1ccc(CNc2ccc(Cc3c[nH]c4ncc(Cl)cc34)cn2)cn1 [pexidartinib]

>  <Target Or System>
panel of 255 wild-type kinases (Homo sapiens, UniProt O15146)

>  <Endpoint>
inhibition at 1 µM

>  <Measured Value>
33

$$$$
>  <Compound>
C[C@H](Nc1ncnc2nc[nH]c12)c1cc2cccc(Cl)c2c(=O)n1-c1ccccc1 [duvelisib]

>  <Target Or System>
panel of 255 wild-type kinases (Homo sapiens, UniProt O15146)

>  <Endpoint>
inhibition at 1 µM

>  <Measured Value>
-4.45

$$$$
>  <Compound>
C=CC(=O)N1CCC([C@@H]2CCNc3c(C(N)=O)c(-c4ccc(Oc5ccccc5)cc4)nn32)CC1 [zanubrutinib]

>  <Target Or System>
panel of 255 wild-type kinases (Homo sapiens, UniProt O15146)

>  <Endpoint>
inhibition at 1 µM

>  <Measured Value>
-1.31

$$$$
>  <Compound>
COC(=O)N[C@@H](C)CNc1nccc(-c2cn(C(C)C)nc2-c2cc(Cl)cc(NS(C)(=O)=O)c2F)n1 [encorafenib]

>  <Target Or System>
panel of 255 wild-type kinases (Homo sapiens, UniProt O15146)

>  <Endpoint>
inhibition at 1 µM

>  <Measured Value>
-1.72

$$$$
